tested on: MS2 coat protein; assay: apparent KD of MS2 coat protein; designed switch direction (-1 OFF switch, 1 ON switch): -1; higher = weaker reporter binding; settings: input ligand: microRNA oligo, concentration not stated
REPORTED_ENDPOINT: apparent KD of MS2 coat protein
The answer consists of two parts: a number and, after it, its unit.

As a guide, the following entries are already answered.
chain="GCCAGAGCAGGAUAUCUAUAUUAUCACAUGAGGAUCACCCAUGUCCAGCGAAAGCUGGAGGGAGAAGGGCUCUGGC [Fiskers Ex 5 - 26] (Eterna round: R96, puzzle: Exclusion 5)" system_under_test="MS2 coat protein" recorded_measurement="0.0609 µM"
chain="AGUGGGCGCGUAGGAUAUGAGGAUCACCCAUAGAAGGAUAUCGAAAGAGAAGGUCUGAGGAUUACCCAGAAGGACGGGUUUGUA [pwkr exNG2 2xF5 2xFMN.15] (Eterna round: R96, puzzle: Exclusion NG 2)" system_under_test="MS2 coat protein" recorded_measurement="0.278 µM"
chain="UCACGGGACUGAGGAUAUACAUGAACCAUUUUUGUAGAAGGCAGAAUGUUAGAUCAUACACUAAACAUGAGGAUCACCCAUGUU [JR_ExcNG1_Sub025] (Eterna round: R96, puzzle: Exclusion NG 1)" system_under_test="MS2 coat protein" recorded_measurement="0.0188 µM"
chain="CUGUUCCGUGUAGGAUAUGCAUAUUCUCAUUAUGCAGAAGGACAUGAGGAUCACCCAUGUAUGUUAUUAUCAUGUGUUACAUGC [Design 7] (Eterna round: R96, puzzle: Exclusion NG 1)" system_under_test="MS2 coat protein" recorded_measurement="0.0359 µM"
chain="AGCGUGGAGACAGGAUAUGAGAAUAGAUAGAACUCAGAAGGGUCACAUGAGGAUCACCCAUGUAAAGUCUUGAGGAUGAGUGAU [Prohibition 4 - Jieux - Exclusion NG 1] (Eterna round: R96, puzzle: Exclusion NG 1)" system_under_test="MS2 coat protein" recorded_measurement="0.0577 µM"
chain="UAUAUAUAGUAAGGAUAUGUAUAUAUUUAAUAAACAGAAGGUACUGACAUGAGGAUCACCCAUGUUUUAGUGUGGGCAUGUAGA [JMF's solution 63] (Eterna round: R96, puzzle: Exclusion NG 1)" system_under_test="MS2 coat protein" recorded_measurement="0.0599 µM"
chain="ACAUGAGGAUCACCCAUGUGGGUUCUCCAGCAUAAUAAGAGGUAGGAUAUGCAGUCGCCGAAGGAGCAGAAGGACCGCGUUUAU [Eternabot solution 50] (Eterna round: R96, puzzle: Exclusion NG 3)" system_under_test="MS2 coat protein" recorded_measurement="0.0297 µM"
chain="AGCUGUGGCCGAGGAUAUCUACAUGAGGAUCACCCAUGUAAAGGGUGUAUCGGGAAAACCUCGAUGGAGAAGGCGGUCUCAGCA [Eli eng2 - 047] (Eterna round: R96, puzzle: Exclusion NG 2)" system_under_test="MS2 coat protein" recorded_measurement="0.0453 µM"

For every item in the list below, what is its measured apparent KD of MS2 coat protein?
1. UAUAUAUAGUAAGGAUAUGUAUUAAUUUUAGAAACAGAAGGUACUGACAUGAGGAUCACCCAUGUUUUAGUGUGGGCAUGUAGA [JMF's solution 88] (Eterna round: R96, puzzle: Exclusion NG 1)
2. AGCGAGGAGACAGGAUAUGAGAAUAGAUAGAACUCAGAAGGGUCACAUGAGGAUCACCCAUGUAAAGUCUUGAGGCUGCGUGGU [Prohibition 8 - Jieux - Exclusion NG 1] (Eterna round: R96, puzzle: Exclusion NG 1)
3. AAGCCUGGCUCAGGAUAUACAUGAGGAUCACCCAUGUUCUCAGUGAGGCAAGAUAACAACACGACGUAGAAGGGAGCUAGGCCG [Eternabot solution 5] (Eterna round: R96, puzzle: Exclusion NG 2)

Response:
1. 0.0757 µM
2. 0.0843 µM
3. 0.0179 µM

Answer for every listed entry: what is its apparent KD of MS2 coat protein? The entries follow.
1. UAAUAUCUGAUUCUUGAGAUACAUGAGGAUCACCCAUGUUCACAGGAUAUUGAUUUUAAGAAAAGCAAGAAGGGUGAAUCAUUU [JR_ExcNG3_Sub041] (Eterna round: R96, puzzle: Exclusion NG 3)
2. ACAUGUCAUCGAGGAUAUUGCACACAUGAGGAUCACCCAUGUAUUCGGUUGCUCUCGCGUGAGUUCGAGAAGGCGAUGUACAUU [Ex NG2 #84] (Eterna round: R96, puzzle: Exclusion NG 2)
3. GCAACGCUGAAAGGAUAUGUUGACCGAGAGACAACAGAAGGUUCCGCACAUGAGGAUCACCCAUGUGAUCGUAAAAGAGCAAGC [Eternabot solution 18] (Eterna round: R96, puzzle: Exclusion NG 1)
4. ACAUGUCAUUGAGGAUAUCGCACACAUGAGGAUCACCCAUGUAAACAGAUGCUCAUAAGUGGGUUCGAGAAGGCGAUGUACAUU [Ex NG2 #100] (Eterna round: R96, puzzle: Exclusion NG 2)
5. GAACUCGUGAAGGAUAUCCGUACCAAAGCGGCAGGAGAAGGUCACACAUGAGGAUCACCCAUGUGGUACCUCGU [Xeinbira] (Eterna round: R96, puzzle: Exclusion 6)
6. UGUCAGAUGGUAGGAUAUCCAUAUCGAGUGACCCUUUCAUAACAUGAGGAUCACCCAUGUUGGUGGGAGAAGGGCCGUAUGGUG [salish99_ExNG02_R04_026] (Eterna round: R96, puzzle: Exclusion NG 2)
7. GCGCACCUACCAAAAGGUAGGUCAACAUGAGGAUCACCCAUGUAGGAUAUCGAUUGCUUUGCAGUCGAGAAGGACAUGAUGCGC [JL ENG3 3.80 Mod 13] (Eterna round: R96, puzzle: Exclusion NG 3)

Response:
1: 0.0165 µM; 2: 0.0366 µM; 3: 0.0359 µM; 4: 0.119 µM; 5: 0.0236 µM; 6: 0.0127 µM; 7: 0.0363 µM

The reported numbers originate from the supplement of paper PMC9170038.
